Entries and their measured Ratio (-BP/+BP), DF-5000006 follow.
# measured.on: T1, IL-18 binding protein (IL-18BP) (UniProt O95998 31-194)
# T1 sequence (looked up): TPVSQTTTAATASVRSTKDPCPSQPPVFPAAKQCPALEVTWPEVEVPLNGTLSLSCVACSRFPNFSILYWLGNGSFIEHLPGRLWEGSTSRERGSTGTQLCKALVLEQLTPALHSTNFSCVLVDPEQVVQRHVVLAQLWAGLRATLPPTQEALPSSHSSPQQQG
# measurement.protocol: cell-based or functional assay

| binder | Ratio (-BP/+BP), DF-5000006 |
| --- | --- |
| IL-18 variant G3P, E6K, D54R, S55P, T63A, N91V (ligand) YFPKLKSKLSVIRNLNDQVLFIDQGNRPLFEDMTDSDMRDNAPRTIFIISMYKRPQPRGMAVAISVKSEKISTLSSENKIISFKEMNPPDVIKDTKSDIIFFQRSVPGHDNKMQFESSSYEGYFLASEKERDLFKLILKKEDELGDRSIMFTVQNED | 0.92 |
| IL-18 variant G3P, E6V, K53A, D54W, S55P, T63S, N91L, R104K (ligand) YFPKLVSKLSVIRNLNDQVLFIDQGNRPLFEDMTDSDMRDNAPRTIFIISMYAWPQPRGMAVSISVKSEKISTLSSENKIISFKEMNPPDLIKDTKSDIIFFQKSVPGHDNKMQFESSSYEGYFLASEKERDLFKLILKKEDELGDRSIMFTVQNED | 0.9 |
| IL-18 variant G3P, E6S, K53N, D54Y, S55P, T63I, N91K, R104H (ligand) YFPKLSSKLSVIRNLNDQVLFIDQGNRPLFEDMTDSDMRDNAPRTIFIISMYNYPQPRGMAVIISVKSEKISTLSSENKIISFKEMNPPDKIKDTKSDIIFFQHSVPGHDNKMQFESSSYEGYFLASEKERDLFKLILKKEDELGDRSIMFTVQNED | 0.94 |
